# TARGET DESC: human mAChR M1 (Homo sapiens)
# EXPERIMENT NOTES: mAChR M1 cell-based functional assay (calcium mobilization), PAM mode: increase in the EC20 acetylcholine response
Note that class boundaries on Emax are LOW (below 60%), MEDIUM (60% to below 80%), HIGH (80% or more)

SMILES REPRESENTATION: [2H]C1([2H])c2ncccc2C(=O)N1Cc1ccc(-c2ccc3nn(C)cc3c2)cc1
LABEL: MEDIUM
--
SMILES REPRESENTATION: [2H]C1([2H])c2ncccc2C(=O)N1Cc1ccc(-c2ccn3ccnc3c2)cc1
LABEL: LOW
--
SMILES REPRESENTATION: [2H]C1([2H])c2ncccc2C(=O)N1Cc1c(F)cc(-c2ccc(C)c3nn(C([2H])([2H])[2H])cc23)cc1F
LABEL: HIGH

Class? Entry: [2H]C1([2H])c2ncccc2C(=O)N1Cc1c(F)cc(-c2cccc3nn(C([2H])([2H])[2H])cc23)cc1C1CC1
HIGH

Class? Entry: [2H]C1([2H])c2ncccc2C(=O)N1Cc1c(F)cc(-c2ccc(OC(F)(F)F)c3c2cnn3C([2H])([2H])[2H])cc1F
LOW

Class? Entry: [2H]C1([2H])c2ncccc2C(=O)N1Cc1c(C)cc(-c2ccc3nn(C)cc3c2)cc1F
HIGH

----------
Here, each record is paired with measured pEC50 data.
# TARGET DESC: human mAChR M1 (Homo sapiens)
# Sequence (P11229 1-460): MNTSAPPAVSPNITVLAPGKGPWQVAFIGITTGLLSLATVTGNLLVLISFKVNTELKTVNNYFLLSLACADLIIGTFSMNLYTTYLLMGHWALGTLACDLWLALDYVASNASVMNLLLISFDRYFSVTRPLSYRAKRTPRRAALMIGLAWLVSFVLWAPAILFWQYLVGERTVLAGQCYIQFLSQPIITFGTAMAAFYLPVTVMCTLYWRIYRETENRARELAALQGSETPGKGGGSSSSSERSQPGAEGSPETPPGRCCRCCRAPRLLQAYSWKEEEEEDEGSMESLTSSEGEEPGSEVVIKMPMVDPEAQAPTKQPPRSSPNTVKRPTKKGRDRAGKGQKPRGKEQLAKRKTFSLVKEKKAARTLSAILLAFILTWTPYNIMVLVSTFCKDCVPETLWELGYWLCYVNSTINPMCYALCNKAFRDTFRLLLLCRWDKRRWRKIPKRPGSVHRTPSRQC
# EXPERIMENT NOTES: mAChR M1 cell-based functional assay (calcium mobilization), PAM mode: increase in the EC20 acetylcholine response
Scale: pEC50 equals -log10([C]), with [C] in mol/L.

Here is how some compounds turned out for pEC50.
COMPOUND: [2H]C1([2H])c2ncccc2C(=O)N1Cc1c(F)cc(-c2ccc(OC3CC3)c3nn(C)cc23)cc1OCC(C)C
RECORDED VALUE: 5.84
--
COMPOUND: [2H]C1([2H])c2ncccc2C(=O)N1Cc1c(F)cc(-c2ccc(OC)c3nn(C([2H])([2H])[2H])cc23)cc1C1CC1
RECORDED VALUE: 6.11
--
COMPOUND: [2H]C1([2H])c2ncccc2C(=O)N1Cc1c(F)cc(-c2ccc(S(C)(=N)=O)c3nn(C)cc23)cc1F (stereo not shown)
RECORDED VALUE: 6.23
--
COMPOUND: [2H]C1([2H])c2ncccc2C(=O)N1Cc1c(F)cc(-c2cc(C(F)F)cc3nn(C)cc23)cc1F
RECORDED VALUE: 6.80

// query pEC50 value for entry [2H]C1([2H])c2ncccc2C(=O)N1Cc1c(F)cc(-c2ccnc3nn(C)cc23)cc1F
6.01

// query pEC50 value for entry [2H]C([2H])([2H])Oc1cnc2c(c1)C(=O)N(Cc1c(F)cc(-c3cccc4nn(C([2H])([2H])[2H])cc34)cc1F)C2([2H])[2H]
7.00

----------
# TARGET DESC: human mAChR M1 (Homo sapiens)
# EXPERIMENT NOTES: mAChR M1 cell-based functional assay (calcium mobilization), PAM mode: increase in the EC20 acetylcholine response
Here, each record is paired with measured pEC50 data.
Scale: pEC50 equals -log10([C]), with [C] in mol/L.

Here is how some compounds turned out for pEC50.
COMPOUND: [2H]C1([2H])c2ncccc2C(=O)N1Cc1c(F)cc(-c2ccc(OC)c3nn(C)cc23)cc1Cl
pEC50: 6.62

COMPOUND: [2H]C([2H])([2H])Oc1cnc2c(c1)C(=O)N(Cc1c(F)cc(-c3ccc(OC)c4nn(C)cc34)cc1F)C2([2H])[2H]
pEC50: 6.75

// query pEC50 value for entry [2H]C1([2H])c2ncccc2C(=O)N1Cc1c(F)cc(-c2ccc(OC[C@@H](C)OC)c3nn(C)cc23)cc1F
6.45

----------
# TARGET DESC: human mAChR M1 (Homo sapiens)
# EXPERIMENT NOTES: mAChR M1 cell-based functional assay (calcium mobilization), PAM mode: increase in the EC20 acetylcholine response
QUANTITY NAME: Emax (%)
Write the number in % without appending the unit.

Here is how some compounds turned out for Emax.
COMPOUND: [2H]C1([2H])c2ncccc2C(=O)N1Cc1c(F)cc(-c2ccc(OC3CCOC3)c3nn(C)cc23)cc1F (centres unmarked)
READOUT UNIT: %
Emax: 65
//
COMPOUND: [2H]C1([2H])c2ncccc2C(=O)N1Cc1c(F)cc(-c2cc(C(F)F)cc3nn(C)cc23)cc1F
READOUT UNIT: %
Emax: 48
//
COMPOUND: [2H]C1([2H])c2ncccc2C(=O)N1Cc1ccc(-c2cccc3nn(C([2H])([2H])[2H])cc23)cc1F
READOUT UNIT: %
Emax: 84
//
COMPOUND: [2H]C1([2H])c2ncccc2C(=O)N1Cc1c(F)cc(-c2cccc3nn(C([2H])([2H])[2H])cc23)cc1C1CCCC1
READOUT UNIT: %
Emax: 62

// query Emax value for entry [2H]C1([2H])c2ncccc2C(=O)N1Cc1ccc(-c2ccc(F)c3nn(C([2H])([2H])[2H])cc23)cc1F
82

// query Emax value for entry [2H]C1([2H])c2ncccc2C(=O)N1Cc1c(F)cc(-c2ccnc3nn(C)cc23)cc1C1CC1
88

// query Emax value for entry [2H]C1([2H])c2ncccc2C(=O)N1Cc1c(F)cc(-c2ccc(OCCOC)c3nn(C)cc23)cc1F
75

// query Emax value for entry [2H]C1([2H])c2ncccc2C(=O)N1Cc1c(F)cc(-c2ccc(OCc3ccccc3)c3nn(C)cc23)cc1F
65

// query Emax value for entry [2H]C1([2H])c2ncccc2C(=O)N1Cc1ccc(-c2ccc3nn(C)cc3c2)cc1C
72

// query Emax value for entry [2H]C1([2H])c2ncccc2C(=O)N1Cc1c(F)cc(-c2cc3cn(C)nc3cc2C)cc1F
48

// query Emax value for entry [2H]C1([2H])c2ncccc2C(=O)N1Cc1c(F)cc(-c2ccc(Cl)c3nn(C)cc23)cc1OCC(C)C
83

// query Emax value for entry [2H]C1([2H])c2ncccc2C(=O)N1Cc1c(F)cc(-c2ccn3ccnc3c2)cc1F
40

// query Emax value for entry [2H]C([2H])([2H])Oc1cnc2c(c1)C(=O)N(Cc1ccc(-c3cccc4nn(C)cc34)cc1F)C2([2H])[2H]
79

// query Emax value for entry [2H]C1([2H])c2ncccc2C(=O)N1Cc1c(F)cc(-c2ccc(OC(F)(F)F)c3nn(C)cc23)cc1F
73

----------
# TARGET DESC: human mAChR M1 (Homo sapiens, UniProt P11229)
# EXPERIMENT NOTES: mAChR M1 cell-based functional assay (calcium mobilization), PAM mode: increase in the EC20 acetylcholine response
Here, each record is paired with measured Emax data.
Answer format: number, then unit.

Here is how some molecules turned out for Emax.
SMILES REPRESENTATION: [2H]C1([2H])c2ncccc2C(=O)N1Cc1c(F)cc(-c2ccc(OCCOC(C)C)c3nn(C)cc23)cc1F
TARGET DESC: human mAChR M1 (Homo sapiens, UniProt P11229)
QUANTITY NAME: Emax
RECORDED VALUE: 77%

SMILES REPRESENTATION: [2H]C1([2H])c2ncccc2C(=O)N1Cc1c(F)cc(-c2ccc(OC)c3n[nH]cc23)cc1F
TARGET DESC: human mAChR M1 (Homo sapiens, UniProt P11229)
QUANTITY NAME: Emax
RECORDED VALUE: 69%

SMILES REPRESENTATION: [2H]C1([2H])c2ncccc2C(=O)N1Cc1c(F)cc(-c2ccc(O)c3nn(C)cc23)cc1F
TARGET DESC: human mAChR M1 (Homo sapiens, UniProt P11229)
QUANTITY NAME: Emax
RECORDED VALUE: 82%

Now consider a different molecule.
// query Emax value for entry [2H]C1([2H])c2ncccc2C(=O)N1Cc1c(F)cc(-c2cccc3nn(C)cc23)cc1N(C)C
42%

Recorded values, source patent US20240228489A1.
